The reported numbers originate from patent US20170052184A1.

Listed here: items and their measured Kd.
experimental-target: T1, HCV Core 134-171-TT Peptide (hepatitis C virus (HCV-1 numbering) …)
T1 construct: also called ALRZ-9 peptide
method-notes: SPR, captured mAb, peptide analyte
API: value field is a number in nM; no unit string.

Note down Kd recorded for HCV 208A-877 (antibody, V domains shown) VH: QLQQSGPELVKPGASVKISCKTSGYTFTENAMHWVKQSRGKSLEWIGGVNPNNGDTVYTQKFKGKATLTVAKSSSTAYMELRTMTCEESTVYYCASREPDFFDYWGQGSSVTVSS VL: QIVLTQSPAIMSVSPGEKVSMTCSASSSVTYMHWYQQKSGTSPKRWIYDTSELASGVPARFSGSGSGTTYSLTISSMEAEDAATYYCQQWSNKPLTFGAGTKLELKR 2.2

Determine from records and report Kd for HCV 208B-395 (antibody, V domains shown) VH: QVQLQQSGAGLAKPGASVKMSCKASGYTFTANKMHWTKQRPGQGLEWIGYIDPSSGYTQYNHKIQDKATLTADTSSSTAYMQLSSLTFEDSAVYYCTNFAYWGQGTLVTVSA VL: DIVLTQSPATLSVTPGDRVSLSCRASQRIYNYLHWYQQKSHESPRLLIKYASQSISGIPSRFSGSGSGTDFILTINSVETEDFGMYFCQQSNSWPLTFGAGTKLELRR 0.36

Hello, please tell me recorded Kd for this one: HCV 208B-174 (antibody, V domains shown) VH: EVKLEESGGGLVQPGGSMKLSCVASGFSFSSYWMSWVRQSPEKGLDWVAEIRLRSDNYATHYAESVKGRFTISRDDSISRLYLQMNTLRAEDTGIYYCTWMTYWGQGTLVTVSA VL: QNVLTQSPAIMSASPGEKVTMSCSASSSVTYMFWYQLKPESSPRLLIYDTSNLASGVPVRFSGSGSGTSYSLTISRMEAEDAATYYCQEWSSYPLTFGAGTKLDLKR 0.25

Quickly give me recorded Kd for HCV 208B-560 (antibody, V domains shown) VH: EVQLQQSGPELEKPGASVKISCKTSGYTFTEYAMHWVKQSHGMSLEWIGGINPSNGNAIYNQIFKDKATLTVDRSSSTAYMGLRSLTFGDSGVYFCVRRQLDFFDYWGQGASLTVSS VL: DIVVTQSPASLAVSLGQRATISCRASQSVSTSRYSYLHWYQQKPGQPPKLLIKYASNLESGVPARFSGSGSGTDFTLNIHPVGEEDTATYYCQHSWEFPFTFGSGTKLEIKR 0.23

Note down Kd recorded for HCV 208A-605 (antibody, V domains shown) VH: EVQLQQSGPELEKPGASVKISCKTSGYTFTEYAIHWVKQSHGMSLEWIGGINPSNGNAIYNQIFKDKATLTVDRSSSTAYMGLRSLTFGDSGVYFCVRRQLDFFDYWGQGASLTVSS VL: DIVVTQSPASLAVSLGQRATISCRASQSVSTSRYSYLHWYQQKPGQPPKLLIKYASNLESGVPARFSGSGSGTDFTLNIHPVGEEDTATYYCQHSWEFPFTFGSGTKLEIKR 0.43
